The measurements presented in this section are drawn from patent US12472168B2.

test system: Strep. pyogenes; assay: MIC and MBC assays; format: cell-based; conditions: Streptococcus pyogenes, compound alone, no antibiotic
recorded metric: MBC (µM)
# unit: µM | format: bare number

Task: What value of MBC has been recorded for this entry: O=C(O)c1c(-c2ccoc2)sc2c(C3CC3)c(Cc3cccc4ccccc34)cc(=O)n12
Output: 25

Task: Which MBC value belongs to O=C(O)C1C(c2ccccc2)Sc2c(-c3ccc4c(c3)OCO4)c(COc3cccc4ccccc34)cc(=O)n21 (stereo not drawn) ?
Output: 25

Task: Would you kindly share the measured MBC for O=C(O)c1c(-c2ccsc2)sc2c(C3CC3)c(Cc3cccc4ccccc34)cc(=O)n12 ?
Output: 25

Task: So what does the record say about MBC for O=C(O)c1c(-c2ccco2)sc2c(C3CC3)c(Cc3cccc4ccccc34)cc(=O)n12 ?
Output: 50

Task: Could you tell me which MBC is on file for O=C(O)c1c(-c2ccc3[nH]ccc3c2)sc2c(C3CC3)c(Cc3cccc4ccccc34)cc(=O)n12 ?
Output: 50

Task: Would you mind telling me what MBC value was observed for O=C(O)C1CSc2c(-c3cccc(C(F)(F)F)c3)c(Cc3c4ccccc4cc4ccccc34)cc(=O)n21 (stereo not drawn) ?
Output: 12.5

Task: So what's the measured MBC for this one? O=C(O)C1CSc2c(-c3cccc(C(F)(F)F)c3)c(Cc3cccc4ccccc34)cc(=O)n21 (stereo not drawn)
Output: 50

Task: I'd like to know its MBC. The compound in question is O=C(O)c1c(-c2ccccc2)sc2c(C3CC3)c(Cc3cccc4ccccc34)cc(=O)n12
Output: 25

Task: I have this compound here, Cc1cccc(-c2sc3c(C4CC4)c(Cc4cccc5ccccc45)cc(=O)n3c2C(=O)O)c1 , and I need its recorded MBC.
Output: 12.5

Task: Given O=C(O)c1c(-c2ccc3c(c2)OCCO3)sc2c(C3CC3)c(Cc3cccc4ccccc34)cc(=O)n12 , state its recorded MBC.
Output: 20

Task: I'd like to know its MBC. The compound in question is O=C(O)c1c(Cc2ccccc2)sc2c(C3CC3)c(Cc3cccc4ccccc34)cc(=O)n12
Output: 25

Task: May I ask what MBC has been recorded for Cc1ccc(-c2sc3c(C4CC4)c(Cc4cccc5ccccc45)cc(=O)n3c2C(=O)O)cc1 ?
Output: 50
